Experiment Notes: Selectivity index, ratio of CC50 for human MT4 cells to EC50 for wild type HIV-1 3B infected in human MT4 cells
Type: toxicity, cell-based
Cond: read-out: Ratio CC50/EC50
The entries below are paired with their reported selectivity ratio.
Assay Metric: selectivity ratio

- COc1ccc(NC(=O)COc2ccnc(Nc3ccc(C#N)cc3)n2)cc1: > 7
- Cc1cnc(Nc2ccc(C#N)cc2)nc1OCC(=O)Nc1cccc(Cl)c1: 2890
- Cc1cc(OCC(=O)Nc2ccc(Cl)cc2)nc(Nc2ccc(C#N)cc2)n1: < 1
- Cc1cnc(Nc2ccc(C#N)cc2)nc1OCC(=O)Nc1ccccc1Cl: 11300
- Cc1cnc(Nc2ccc(C#N)cc2)nc1OCC(=O)Nc1ccc(C#N)cc1F: > 102
- CC(C)Nc1cccnc1N1CCN(C(=O)c2cc3cc(NS(C)(=O)=O)ccc3[nH]2)CC1: > 67
- Cc1cnc(Nc2ccc(C#N)cc2)nc1OCC(=O)Nc1ccc([N+](=O)[O-])cc1: < 1
- Cc1cnc(Nc2ccc(C#N)cc2)nc1OCC(=O)Nc1ccccc1F: > 25200
- Cc1cnc(Nc2ccc(C#N)cc2)nc1OCC(=O)Nc1ccc(C#N)cc1: ≥ 20
- Cc1cnc(Nc2ccc(C#N)cc2)nc1OCC(=O)Nc1ccc(Br)cc1: < 1
- Cc1cc(C#N)cc(C)c1Oc1nc(Nc2ccc(C#N)cc2)nc(N)c1Br: 7680
- O=c1[nH]cnc2c1ncn2[C@H]1CC[C@@H](CO)O1: > 9
- N#Cc1ccc(Nc2nccc(OCC(=O)Nc3cccc(Cl)c3)n2)cc1: > 9340
- N#Cc1ccc(Nc2nccc(OCC(=O)Nc3ccc(Cl)cc3)n2)cc1: 8
- Cc1cc(OCC(=O)Nc2cccc(Cl)c2)nc(Nc2ccc(C#N)cc2)n1: 197
- Nc1ccn([C@@H]2CS[C@H](CO)O2)c(=O)n1: > 39
- Cc1cc(OCC(=O)Nc2ccc(Br)cc2)nc(Nc2ccc(C#N)cc2)n1: < 1

* * *

Entries and their EC50
System: Human immunodeficiency virus 2
Experiment Notes: Antiviral activity against wild type HIV-2 ROD infected in human MT4 cells assessed as reduction of virus-induced cytopathic effect after 5 days by MTT assay
Type: functional, organism-based
Cond: Human immunodeficiency virus 2, ISOLATE ROD, MT4, 120 h
Assay Metric: EC50

* Cc1cnc(Nc2ccc(C#N)cc2)nc1OCC(=O)Nc1ccc(Cl)cc1 | > 317 µM
* N#Cc1ccc(NC(=O)COc2ccnc(Nc3ccc(C#N)cc3)n2)cc1 | > 338 µM
* Cc1cc(OCC(=O)Nc2cccc(Cl)c2)nc(Nc2ccc(C#N)cc2)n1 | > 32.1 µM
* Cc1cnc(Nc2ccc(C#N)cc2)nc1OCC(=O)Nc1ccc(F)cc1 | > 331 µM

* * *

System Tested: Human immunodeficiency virus type 1 reverse transcriptase (Human immunodeficiency virus 1, UniProt Q72547)
pIC50: −log10 of the molar value.
Quick rule for you: pIC50 at 6 or higher means true, lower means false.

* Cc1cnc(Nc2ccc(C#N)cc2)nc1OCC(=O)Nc1cccc(Cl)c1 | true
* Cc1cnc(Nc2ccc(C#N)cc2)nc1OCC(=O)Nc1ccc(C#N)cc1F | false
* N#Cc1ccc(NC(=O)COc2ccnc(Nc3ccc(C#N)cc3)n2)cc1 | false
* Cc1cnc(Nc2ccc(C#N)cc2)nc1OCC(=O)Nc1ccccc1Cl | true
* N#Cc1ccc(Nc2nccc(OCC(=O)Nc3cccc(Cl)c3)n2)cc1 | true
* Cc1cc(OCC(=O)Nc2cccc(Cl)c2)nc(Nc2ccc(C#N)cc2)n1 | true
* Cc1cnc(Nc2ccc(C#N)cc2)nc1OCC(=O)Nc1ccccc1F | true
* Cc1cnc(Nc2ccc(C#N)cc2)nc1OCC(=O)Nc1ccc(C#N)cc1 | false
* COc1ccc(NC(=O)COc2ccnc(Nc3ccc(C#N)cc3)n2)cc1 | false
* N#Cc1ccc(Nc2nccc(OCC(=O)Nc3ccc(Cl)cc3)n2)cc1 | false
* Cc1cnc(Nc2ccc(C#N)cc2)nc1OCC(=O)Nc1ccc(F)cc1 | false
